- assay-notes: in vivo
- condition-details: male, BALB/c nu/nu, mouse, iv, 500 pmol, total radioactivity, SUV kidneys
Non-standard residues stand in square brackets, D forms with d. Residues, ends and D or L forms follow the SMILES beside them. *: point of attachment. DOTA = O=C(O)CN1CCN(CC(=O)O)CCN(CC(=O)*)CCN(CC(=O)O)CC1; EuK = O=C(O)CC[C@H](NC(=O)N[C@@H](CCCCN*)C(=O)O)C(=O)O; 2Nal = N[C@@H](Cc1ccc2ccccc2c1)C(=O)O; Trx = NC[C@H]1CC[C@H](C(=O)O)CC1
The entries below come with measured SUV at 2 h values attached.
State just the number; it will be interpreted in SUV.

| compound | SUV at 2 h (SUV) |
| --- | --- |
| O=C(O)CC[C@H](NC(=O)N[C@@H](CCCCNC(=O)[C@H](CCC(=O)O)NC(=O)[C@H](CCC(=O)O)NC(=O)[C@H](CCC(=O)O)NC(=O)[C@H](Cc1ccc2ccccc2c1)NC(=O)[C@H]1CC[C@H](CNC(=O)CN2CCN(CC(=O)O)CCN(CC(=O)O)CCN(CC(=O)O)CC2)CC1)C(=O)O)C(=O)O [PS6, EuK-E3-NaI-ChX-DOTA] ({DOTA-Trx}-[2Nal]EEE-EuK) | 0.4 |
| O=C(O)CC[C@H](NC(=O)N[C@@H](CCCCNC(=O)[C@H](Cc1ccc2ccccc2c1)NC(=O)[C@H](CCC(=O)O)NC(=O)[C@H](CCC(=O)O)NC(=O)[C@H](CCC(=O)O)NC(=O)[C@H]1CC[C@H](CNC(=O)CN2CCN(CC(=O)O)CCN(CC(=O)O)CCN(CC(=O)O)CC2)CC1)C(=O)O)C(=O)O [PS7, EuK-NaI-E3-ChX-DOTA] ({DOTA-Trx}-EEE[2Nal]-EuK) | 0.59 |
| O=C(O)CC[C@H](NC(=O)N[C@@H](CCCCNC(=O)[C@H](Cc1ccc2ccccc2c1)NC(=O)[C@H]1CC[C@H](CNC(=O)[C@H](CCC(=O)O)NC(=O)[C@H](CCC(=O)O)NC(=O)[C@H](CCC(=O)O)NC(=O)CN2CCN(CC(=O)O)CCN(CC(=O)O)CCN(CC(=O)O)CC2)CC1)C(=O)O)C(=O)O [PS8, EuK-NaI-ChX-E3-DOTA] ({DOTA}-EEE[Trx][2Nal]-EuK) | 2.7 |
| O=C(O)CC[C@H](NC(=O)N[C@@H](CCCCNC(=O)[C@H](Cc1ccc2ccccc2c1)NC(=O)[C@H](Cc1c[nH]cn1)NC(=O)[C@H](Cc1c[nH]cn1)NC(=O)[C@H](Cc1c[nH]cn1)NC(=O)[C@H]1CC[C@H](CNC(=O)CN2CCN(CC(=O)O)CCN(CC(=O)O)CCN(CC(=O)O)CC2)CC1)C(=O)O)C(=O)O [PS10, EuK-NaI-H3-ChX-DOTA] ({DOTA-Trx}-HHH[2Nal]-EuK) | 1.09 |

Lab note: next compound to report on.
Field request: SUV at 2 h | item: O=C(O)CC[C@H](NC(=O)N[C@@H](CCCCNC(=O)[C@H](Cc1ccc2ccccc2c1)NC(=O)[C@H]1CC[C@H](CNC(=O)[C@H](CCC(=O)O)NC(=O)[C@H](Cc2c[nH]cn2)NC(=O)[C@H](CCC(=O)O)NC(=O)[C@H](Cc2c[nH]cn2)NC(=O)[C@H](CCC(=O)O)NC(=O)[C@H](Cc2c[nH]cn2)NC(=O)CN2CCN(CC(=O)O)CCN(CC(=O)O)CCN(CC(=O)O)CC2)CC1)C(=O)O)C(=O)O [PS4, EuK-NaI-ChX-(EH)3-DOTA] ({DOTA}-HEHEHE[Trx][2Nal]-EuK)
2.77
